# Measured On: T1, CD123-his-biotin抗原 (Homo sapiens (Human), UniProt P26951 19-305, biotin label (site not stated))
# T1 construct: Bought from SinoBiological and biotin-labelled; also called CD123-Biotin; CD123抗原; not shown: his tag
# T1 sequence: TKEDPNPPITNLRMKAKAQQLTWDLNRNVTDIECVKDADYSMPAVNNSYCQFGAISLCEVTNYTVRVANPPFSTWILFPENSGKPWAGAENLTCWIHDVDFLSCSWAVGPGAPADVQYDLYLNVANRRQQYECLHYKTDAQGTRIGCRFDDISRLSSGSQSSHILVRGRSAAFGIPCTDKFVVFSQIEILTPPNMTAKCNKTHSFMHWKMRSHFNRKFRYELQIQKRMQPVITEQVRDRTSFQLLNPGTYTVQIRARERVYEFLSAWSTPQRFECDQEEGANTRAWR
# Assay Summary: BLI (Octet RED96), CD123-Biotin on AR2G sensor, scFv periplasmic extract as analyte
# Design: unit not given here
Observable: 响应
Please give only the number in your answer, with no unit.

Worked cases, answers included:
6G3 (scFv, V domains shown, also called 抗体6G3) VH: QVQLQQPGAELVRPGASVKLSCKASGYTFTSYWMNWVKQRPDQGLEWIGRIDPYDSETHYNQKFKDKAILTVDKSSSTAYMQLSSLTSEDSAVYYCARGNWDDYWGQGTTLTVSS VL: DVQITQSPSYLAASPGETITINCRASKSISKDLAWYQEKPGKTNKLLIYSSSRLSSGIPSRFSGSGSGTDFTLTISSLEPEDFAMYYCQQHNKYPYTFGGGTKLEIK ... 0.425
4C3 (scFv, V domains shown) VH: QVQLQQPGAELVRPGASVKLSCKASGYTFTQYWMNWVKQRPDQGLEWIGRIDPFDSETHYNLQFKDKAILTVDKSSSTAYMQLSSLTSEDSAVYYCARGNWDDYWGQGTTLTVSS VL: DVQITQSPSYLAASPGETITINCRASKSISKDLAWYQEKPGKTNKLLIYSGSTLQSGIPSRFSGSGSGTDFTLTISSLEPEDFAMYYCQQHNKYPYTFGGGTKLEIK ... 0.083

Query: Look up 响应 for this binder: 2C5 (scFv, V domains shown) VH: QVQLQQPGAELVRPGASVKLSCKASGYTFTQYWMNWVKQRPDQGLEWIGRIDPYDSETHYNQKFKDKAILTVDKSSSTAYMQLSSLTSEDSAVYYCARSQVSDYWGQGTTLTVSS VL: DVQITQSPSYLAASPGETITINCRASKSISKDLAWYQEKPGKTNKLLIYSGSTLQSGIPSRFSGSGSGTDFTLTISSLEPEDFAMYYCQQHNKYPYTFGGGTKLEIK
Reply: 0.177
